assayName: ATG_NFI_CIS: Attagene CIS-FACTORIAL HepG2 Assay for human Nuclear Factor I (NFI) (AID 2282989)
measurementConditions: HepG2 cis-regulatory reporter, NFI response element transcription; actives raise or lower the signal
Activity calls are given as the source filed them. Rule for the calls: active = hit-call score of the fitted dose curve at least 0.9, where 1 is the maximum; inactive = score below 0.9.
Lab note: assign the record to one of active, inactive

Please review the following examples before continuing.
CCCCC(CC)COC(=O)Cl (stereo not given)    inactive
O=C(CCl)NCO    inactive
C=CC(=O)[O][Sn]([CH2]CCC)([CH2]CCC)[CH2]CCC    active
Brc1ccc(Br)cc1    inactive
CC1CC(=O)O1 (stereo not given)    inactive

// param item: O=C(O)CC(O)(CC(=O)O)C(=O)O ; yields the recorded call
inactive

// param item: Nc1ccc(Br)cc1 ; yields the recorded call
inactive

// param item: O=c1nc(O)n(Cl)c(=O)n1Cl ; yields the recorded call
inactive

----------
assayName: ATG_RORE_CIS: Attagene CIS-FACTORIAL HepG2 Assay for human RAR-related Orphan Receptor Element (RORE) (AID 2282959)
measurementConditions: HepG2 Attagene cis-factorial RORE reporter, mRNA; actives raise or lower the signal
Activity calls are given as the source filed them. The calls were made as follows: active = hit-call score of the fitted dose curve at least 0.9, where 1 is the maximum; inactive = score below 0.9.
Lab note: assign the record to one of 1 = active, 0 = inactive

// param item: COP(=S)(OC)Oc1cc(Cl)c(I)cc1Cl ; yields the recorded call
1

// param item: [Cl][Sn]([c]1ccccc1)([c]1ccccc1)[c]1ccccc1 ; yields the recorded call
0

// param item: ClCCCCl ; yields the recorded call
0

----------
assayName: BSK_SAg_PBMCCytotoxicity: PBMC Cytotoxicity Assessment in the BioMAP Diversity Plus: SAg Assay (AID 2283093);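 note: PBMC viability measured as Alamar Blue reduction fluorescence at 546/580 nm; fitted both ways against DMSO so a hit may be loss or gain of signal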
measurementConditions: primary human HUVEC with PBMC
Description: BSK_SAg is a cell-based, multiplexed-readout assay that uses umbilical vein endothelium and peripheral blood mononuclear cells, a human vascular primary cell co-culture, with measurements taken at 24 hours after chemical dosing in a 96-well plate.BSK_SAg_PBMCCytotoxicity is an assay component measured in the BSK_SAg assay. It measures Alamar blue related to cell death using Alamar Blue Reduction technology.Data from the assay component BSK_SAg_PBMCCytotoxicity was analyzed into 1 assay endpoint. […]
Active and inactive are the calls of the source. The calls were made as follows: active = hit-call score of the fitted dose curve at least 0.9, where 1 is the maximum; inactive = score below 0.9.
Lab note: assign the record to one of true (1) (active), false (0) (inactive)

Please review the following examples before continuing.
O=[N+]([O-])c1cccc2ccccc12    false (0)
CC(C)(C)c1cc([N+](=O)[O-])cc(C(C)(C)C)c1O    false (0)
CC(C=O)Cc1ccc2c(c1)OCO2 (configuration not stated)    false (0)
CCOC(=O)CC(=O)CCl    true (1)
Cc1cccc(OP(=O)(Oc2cccc(C)c2)Oc2cccc(C)c2)c1    false (0)
Oc1cc(Cl)c(Cl)cc1Cl    false (0)

We next turn to a different molecule, shown below.
// param item: O=S(=O)(C(Cl)(Cl)Cl)C(Cl)(Cl)Cl ; yields the recorded call
true (1)

----------
assayName: ATG_M_06_CIS: Attagene CIS-FACTORIAL HepG2 Assay for M06 Transcription Factor (Internal Marker) (AID 2282950)
measurementConditions: HepG2 Attagene CIS-FACTORIAL M06 internal marker reporter; actives raise or lower the signal
The source made the active and inactive calls. Rule for the calls: active = hit-call score of the fitted dose curve at least 0.9, where 1 is the maximum; inactive = score below 0.9.
Lab note: assign the record to one of label 1 for active, label 0 for inactive

Please review the following examples before continuing.
Cc1ccc2nc3sc(=O)sc3nc2c1    label 0
COc1nn(C(=O)NS(=O)(=O)c2ccccc2OC(F)(F)F)c(=O)n1C    label 0

// param item: COc1ccccc1N ; yields the recorded call
label 0

// param item: Cc1ccccc1OP(=O)(Oc1ccccc1C)Oc1ccccc1C ; yields the recorded call
label 0

// param item: CCOP(=O)(OCC)OC(=CCl)c1ccc(Cl)cc1Cl ; yields the recorded call
label 0

// param item: Oc1c(Br)cc(Br)cc1Br ; yields the recorded call
label 0

// param item: CC(=O)C(F)(F)C(F)(F)F ; yields the recorded call
label 0

// param item: Cc1cc(SCc2sc(-c3ccc(C(F)(F)F)c(F)c3)nc2C)ccc1OCC(=O)O ; yields the recorded call
label 0

// param item: CNC(=O)O/N=C/C(C)(C)S(C)(=O)=O ; yields the recorded call
label 0

// param item: CCN(CCO)CCO ; yields the recorded call
label 0
